// provenance: ChEMBL document CHEMBL4630907

target: UniProt P37288
Sequence (P37288 whole entry): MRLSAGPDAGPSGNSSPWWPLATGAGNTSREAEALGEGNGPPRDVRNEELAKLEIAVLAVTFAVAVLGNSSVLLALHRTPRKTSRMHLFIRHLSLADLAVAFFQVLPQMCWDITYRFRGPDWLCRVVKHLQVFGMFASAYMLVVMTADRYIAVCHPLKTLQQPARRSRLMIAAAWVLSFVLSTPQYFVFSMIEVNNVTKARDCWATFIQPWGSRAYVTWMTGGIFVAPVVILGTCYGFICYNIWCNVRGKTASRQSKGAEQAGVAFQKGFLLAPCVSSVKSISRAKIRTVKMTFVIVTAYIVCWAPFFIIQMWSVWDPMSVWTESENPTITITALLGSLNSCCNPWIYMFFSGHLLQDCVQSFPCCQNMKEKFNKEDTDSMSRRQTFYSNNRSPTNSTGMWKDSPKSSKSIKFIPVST
pIC50: −log10 of the molar value.
PARAMETER_MEASURED: pIC50

Record lookup: for UniProt P37288, what pIC50 belongs to COCc1nc2cnc3cc(-c4c(C)noc4C)c(OC[C@H]4CCNC4)cc3c2n1[C@H](C)c1ccccc1 ?
< 4.30

---

biological target: SWI/SNF-related matrix-associated actin-dependent regulator of chromatin subfamily A member 2 (Homo sapiens); assay: SMARCA2 DiscoverX BROMOscan
Sequence (P51531 whole entry): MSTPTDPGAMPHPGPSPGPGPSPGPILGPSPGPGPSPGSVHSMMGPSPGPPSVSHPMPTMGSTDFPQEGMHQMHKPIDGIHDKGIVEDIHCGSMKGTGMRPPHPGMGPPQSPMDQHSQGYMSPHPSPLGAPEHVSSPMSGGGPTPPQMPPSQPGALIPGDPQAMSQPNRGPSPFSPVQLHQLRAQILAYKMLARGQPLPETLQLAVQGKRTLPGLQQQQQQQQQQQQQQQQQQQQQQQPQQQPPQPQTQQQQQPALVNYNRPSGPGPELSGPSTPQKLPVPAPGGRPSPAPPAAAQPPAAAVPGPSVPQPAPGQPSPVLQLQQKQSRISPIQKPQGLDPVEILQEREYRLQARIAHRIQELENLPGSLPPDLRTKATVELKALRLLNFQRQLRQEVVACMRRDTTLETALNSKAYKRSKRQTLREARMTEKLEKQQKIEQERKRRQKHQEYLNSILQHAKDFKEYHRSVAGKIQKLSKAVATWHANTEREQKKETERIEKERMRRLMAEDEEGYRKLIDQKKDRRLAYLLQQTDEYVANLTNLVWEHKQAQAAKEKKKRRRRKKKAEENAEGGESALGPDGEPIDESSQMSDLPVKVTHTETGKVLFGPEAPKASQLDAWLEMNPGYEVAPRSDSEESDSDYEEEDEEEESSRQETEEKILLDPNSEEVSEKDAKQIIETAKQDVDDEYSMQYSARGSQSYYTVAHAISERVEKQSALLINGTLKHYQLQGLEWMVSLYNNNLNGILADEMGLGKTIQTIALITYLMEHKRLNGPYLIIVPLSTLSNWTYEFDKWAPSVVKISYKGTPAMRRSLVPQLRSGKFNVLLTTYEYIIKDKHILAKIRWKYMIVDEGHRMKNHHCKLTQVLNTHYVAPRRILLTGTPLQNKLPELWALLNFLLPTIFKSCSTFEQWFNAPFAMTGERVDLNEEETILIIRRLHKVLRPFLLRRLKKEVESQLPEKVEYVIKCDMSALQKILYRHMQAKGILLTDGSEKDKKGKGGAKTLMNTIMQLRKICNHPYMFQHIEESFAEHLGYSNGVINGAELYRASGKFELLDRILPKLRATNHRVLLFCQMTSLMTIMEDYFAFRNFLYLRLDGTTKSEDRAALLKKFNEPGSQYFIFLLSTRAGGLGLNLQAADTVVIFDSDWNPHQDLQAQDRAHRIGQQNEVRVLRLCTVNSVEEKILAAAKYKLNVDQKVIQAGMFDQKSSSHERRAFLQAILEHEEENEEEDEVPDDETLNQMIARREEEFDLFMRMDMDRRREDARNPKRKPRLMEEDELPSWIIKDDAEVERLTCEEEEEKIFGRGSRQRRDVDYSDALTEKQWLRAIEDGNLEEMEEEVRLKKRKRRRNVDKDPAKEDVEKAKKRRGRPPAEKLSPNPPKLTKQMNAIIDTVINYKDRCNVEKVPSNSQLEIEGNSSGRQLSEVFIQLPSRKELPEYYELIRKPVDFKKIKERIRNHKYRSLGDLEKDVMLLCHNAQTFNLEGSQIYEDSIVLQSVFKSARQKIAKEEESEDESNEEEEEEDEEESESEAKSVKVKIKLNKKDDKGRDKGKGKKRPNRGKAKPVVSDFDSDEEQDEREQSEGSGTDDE
PARAMETER_MEASURED: pKd
In simple prose, pKd is minus the logarithm base ten of a concentration in moles per litre.

Entry COCc1nc2cnc3cc(-c4c(C)noc4C)c(OC[C@H]4CCNC4)cc3c2n1[C@H](C)c1ccccc1 [GSK778] has what pKd?
4.52
